measurement description: Antioxidant activity assessed as ABTS radical scavenging activity by spectrophotometry
Type: physicochemical
Returns: string. Value is Fulfilled if measured IC50 is below 20 µM, and Not fulfilled if it is greater than or equal to it.

{"molecule": "Cc1c(C)c2c(c(C)c1O)CCC(C)(C(=O)O)O2 (racemic)", "label class": "Fulfilled"}

Continue with the molecule presented below.
query: Identify whether the molecule `COc1ccc(/C=C/C=C/C(=O)O)cc1OC` records IC50 below 20 µM.
result: Not fulfilled

###

measurement description: Antioxidant activity assessed as galvinoxyl radical scavenging activity measured over 30 mins by spectrophotometry
Assay type: physicochemical
Returns: string. Value is y if measured IC50 is below 5 µM, and n if it is greater than or equal to it.

{"molecule": "Cc1c(C)c2c(c(C)c1O)CCC(C)(C(=O)O)O2 (racemic) [TROLOX]", "label class": "y"}
{"molecule": "O=C(O)/C=C/c1ccc(O)c(O)c1 [CAFFEIC ACID]", "label class": "n"}

query: Identify whether the molecule COc1cc(/C=C/C(=O)O)ccc1O [FERULATE] records IC50 below 5 µM.
result: n

query: Identify whether the molecule O=C(O)/C=C/C=C/c1ccc(O)c(O)c1 [DEMETHYLENATED PIPERIC ACID] records IC50 below 5 µM.
result: y

query: Identify whether the molecule `COc1cc(/C=C/C=C/C(=O)O)ccc1O` records IC50 below 5 µM.
result: y
